Cited source for all entries: ChEMBL document CHEMBL4513216

- Test system: Plasmodium berghei
- testMethodNotes: Screen against P. berghei liver stage (PbLuc), transformed with Luciferase, at 10uM
- Type: functional, HepG2
- studyConditions: tested at 10 uM
Out of some 69,000 compounds screened, about 8,600 (12%) showed an effect of 50% or more. The entries come from a sample that favours strong results as a whole.
Measured INHIBITION values are reported for all entries that follow.
Value expressed in %; do not type the unit.

Below: 2 molecules and their reported INHIBITION.
1. O=C(Nc1ccccc1)N1CCN(Cc2noc(C3CC3)n2)CC1
17.4
2. O=C(CC1CC1)N1CCC2(CC1)CN(c1ccsc1)C(=O)CO2
38.1

Enquiry: Could you share what INHIBITION was measured for CSc1cccc(CN(C)C(=O)Nc2nc(C)n(C)n2)c1 , tested on Plasmodium berghei?
Return: 71.8

Enquiry: Could you share what INHIBITION was measured for Cc1ocnc1C(=O)N(C)[C@@H]1CC[C@@H](n2ccnc2C)[C@@H]1O , tested on Plasmodium berghei?
Return: 45.9

Enquiry: Could you share what INHIBITION was measured for O=C1COC2(CCN(CC3CC3)CC2)CN1c1ccsc1 , tested on Plasmodium berghei?
Return: 78.8

Enquiry: Could you share what INHIBITION was measured for Cc1nc(NC(=O)N(C)Cc2ccsc2)nn1C , tested on Plasmodium berghei?
Return: 25.9

---

- Tested on: Plasmodium berghei
- testMethodNotes: Screen against P. berghei liver stage (PbLuc), transformed with Luciferase, at 10uM
- Assay type: functional, HepG2
- studyConditions: tested at 10 uM
The campaign covered roughly 69,000 compounds. About 8,600 (12%) showed an effect of 50% or more. Only a selection was taken, and strong results are over-represented in it overall.
// boundary case: INHIBITION equal to 30% maps to 0 (no); strictly smaller maps to 1 (yes)

1. Fc1cnc(N2C[C@@H]3COC[C@]3(COc3ccccn3)C2)nc1
0 (no)
2. Cn1cc(CN2C[C@H]3CCC[C@@]3(COc3cccnc3)C2)cn1
0 (no)
3. c1ccc2oc(CCCN3CCOC(Cn4cncn4)C3)nc2c1 (stereo unspecified)
0 (no)
4. CN1CCOC(C(=O)Nc2nc(-c3ccc(Cl)cc3)n[nH]2)C1 (stereo unspecified)
1 (yes)
5. CN1CCOC(C(=O)Nc2nnc(Cc3ccc(F)cc3)[nH]2)C1 (stereo unspecified)
1 (yes)

Enquiry: API: query returns whether the compound falls strictly under 30% in INHIBITION. Query: Cn1c(C2CC2)nc2cc(NC(=O)C3CC=CC3)ccc21
Return: 1 (yes)

Enquiry: API: query returns whether the compound falls strictly under 30% in INHIBITION. Query: O=S(=O)(C1CC1)N1C[C@H]2CCC[C@@]2(COc2ccccn2)C1
Return: 1 (yes)

Enquiry: API: query returns whether the compound falls strictly under 30% in INHIBITION. Query: COCCN1CC[C@@H]2CN(Cc3nccn3C)C[C@@H]2C1
Return: 1 (yes)

Enquiry: API: query returns whether the compound falls strictly under 30% in INHIBITION. Query: O=C(NCCNCC1CNc2ccnn2C1)c1ccc(F)cc1 (stereo unspecified)
Return: 0 (no)

---

- System: Plasmodium berghei
- testMethodNotes: Screen against P. berghei liver stage (PbLuc), transformed with Luciferase, at 10uM
- Type: functional, HepG2
- studyConditions: tested at 10 uM
About 8,600 (12%) of roughly 69,000 compounds showed an effect of 50% or more. The sample as a whole holds a higher share of strong results than the screen did.
If the reported INHIBITION equals or exceeds -20%, assign Criterion met. If not, assign Criterion not met.

Here's what some known entries look like.
1) CSc1ccc(C(=O)N2CC(=O)N(Cc3ccccc3)CC(O)C2)cc1 (centres undefined)
Criterion not met
2) O=C([C@@H]1C[C@@H]2CCN(C3CCOCC3)C[C@@H]2O1)N1CCCC1
Criterion not met
3) Cc1ccc(NC2CCN(C(=O)COCC3CC3)CC2)nn1
Criterion met
4) CS(=O)(=O)NCC1CCCN(C(=O)COCC2CC2)C1 (centres undefined)
Criterion met

Enquiry: Textbook exercise: given the entry Cc1ccc(NC2CCN(C(=O)CCOCC(F)(F)F)CC2)nn1 , state whether its INHIBITION is greater than or equal to -20%.
Return: Criterion met

Enquiry: Textbook exercise: given the entry COCCNC(=O)[C@H]1C[C@@H]2CCN(c3ccccc3)C[C@H]2O1 , state whether its INHIBITION is greater than or equal to -20%.
Return: Criterion met

Enquiry: Textbook exercise: given the entry O=C(NC1CCC1)[C@@H]1C[C@@H]2CCN(Cc3cccs3)C[C@@H]2O1 , state whether its INHIBITION is greater than or equal to -20%.
Return: Criterion met

Enquiry: Textbook exercise: given the entry Cc1ccc(NC2CCN(C(=O)COC3CCCC3)CC2)nn1 , state whether its INHIBITION is greater than or equal to -20%.
Return: Criterion not met

Enquiry: Textbook exercise: given the entry CC(C)(O)CN1CCN(C(=O)COCC2CC2)CC1 , state whether its INHIBITION is greater than or equal to -20%.
Return: Criterion not met
